- ASSAYED_SYSTEM: Chromobox protein homolog 1 (Homo sapiens)
- ASSAY_METHOD_TEXT: qHTS Validation Assay for Inhibitors of HP1-beta Chromodomain Interactions with Methylated Histone Tails (AID 488953); note: nearly all actives have a fitted effect of over 50% in size
- CONDITION_SUMMARY: HP1-beta chromodomain / methylated histone peptide binding assay; series mostly up to 114 µM
Results filed as inconclusive are left out. Activity calls are given as the source filed them. Calls come from the whole dose curve; as a rule, active = well fitted inhibition curve with a large enough effect; inconclusive = small, poorly fitted or top-dose-only effect; inactive = no such curve, though single readings can be large or run the other way.
Reply using exactly one outcome from active, inactive

- CCN(CC)C(C)CN1c2ccccc2Sc2ccccc21 (configuration not stated): active
- CNCCCC1c2ccccc2C=Cc2ccccc21: inactive
- CC1=C(CC(=O)O)c2cc(F)ccc2/C1=C\c1ccc(S(C)(=O)=O)cc1: active
- CC(CN(C)C)CN1c2ccccc2CCc2ccccc21 (configuration not stated): active
- Nc1ncnc2c1ncn2[C@@H]1O[C@H](CO)[C@@H](O)[C@H]1O: inactive
- COc1ccc(Cl)cc1C(=O)NCCc1ccc(S(=O)(=O)NC(=O)NC2CCCCC2)cc1: inactive
- C[C@]12CC[C@@H]3c4ccc(O)cc4CC[C@H]3[C@@H]1CCC2=O: inactive
- CSc1ccc2c(c1)N(CCC1CCCCN1C)c1ccccc1S2 (configuration not stated): active

Which outcome was entered for the molecule CSc1ccc2c(c1)C(N1CCN(C)CC1)Cc1ccccc1S2 (configuration not stated) in this test?
active

What do we get for CC(C(O)c1ccc(O)cc1)N1CCC(Cc2ccccc2)CC1 (configuration not stated) ?
inactive

Now give it for CC[C@H]1CN2CCc3cc(OC)c(OC)cc3[C@@H]2C[C@@H]1C[C@H]1NCCc2cc(OC)c(OC)cc21 too.
inactive

Input CNC(=O)Oc1ccc2c(c1)[C@]1(C)CCN(C)[C@@H]1N2C
inactive

Follow-up entry: C[C@](N)(Cc1ccc(O)cc1)C(=O)O
inactive

====

- ASSAYED_SYSTEM: Peroxisome proliferator-activated receptor alpha (Homo sapiens) (UniProt Q07869)
- Sequence (Q07869 whole entry, looked up): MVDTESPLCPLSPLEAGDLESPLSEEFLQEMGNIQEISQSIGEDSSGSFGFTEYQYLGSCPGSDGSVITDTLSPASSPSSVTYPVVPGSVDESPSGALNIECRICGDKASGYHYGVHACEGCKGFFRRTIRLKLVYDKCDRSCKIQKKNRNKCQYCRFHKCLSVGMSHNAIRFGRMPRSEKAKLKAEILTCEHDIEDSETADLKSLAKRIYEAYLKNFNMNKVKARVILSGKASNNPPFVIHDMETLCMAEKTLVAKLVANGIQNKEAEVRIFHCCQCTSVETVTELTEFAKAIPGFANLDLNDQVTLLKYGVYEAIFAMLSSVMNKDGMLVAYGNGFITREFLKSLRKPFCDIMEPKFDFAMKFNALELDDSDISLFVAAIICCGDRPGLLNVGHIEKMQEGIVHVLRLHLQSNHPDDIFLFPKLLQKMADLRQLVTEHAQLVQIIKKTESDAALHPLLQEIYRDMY
- ASSAY_METHOD_TEXT: qHTS assay for small molecule agonists of the peroxisome proliferator-activated receptor alpha (PPARalpha) signaling pathway (AID 651778); note: % of control where 0% means no effect
- CONDITION_SUMMARY: PathHunter PPARalpha complementation, chemiluminescence, 6 h; stronger effect = higher value
READOUT_NAME: max response (%)
Please reply with the bare figure in % and do not write the unit itself.

- CC(O)COc1ccccc1 (configuration not stated): -0.783

Data request, read-out max response, for Cc1cc2nc3c(=O)[nH]c(=O)nc-3n(C[C@H](O)[C@H](O)[C@H](O)CO)c2cc1C
3.79

How about this compound: COC(=O)C1=C(C)NC(C)=C(C(=O)OC)C1c1ccccc1[N+](=O)[O-]
-2.24

Now this one: C[C@]12CC[C@@H]3c4ccc(O)cc4CC[C@H]3[C@@H]1CCC2=O
-1.03

Query CN(C)CCOC(C)(c1ccccc1)c1ccccn1 (configuration not stated) next
-0.887

# repeat for CCOC(=O)c1ccc(O)cc1
-1.04

For Nc1ccc(S(=O)(=O)Nc2nccs2)cc1 then?
-1.3

COc1ccc(Cl)cc1C(=O)NCCc1ccc(S(=O)(=O)NC(=O)NC2CCCCC2)cc1 , same question.
0.201

Next record, please: [Cl][In]([Cl])[Cl]
-1.33

Here is the next compound: O=C1c2c(O)cccc2Cc2cccc(O)c21
-2.77

Same for CC(CN1c2ccccc2Sc2ccccc21)N(C)C (configuration not stated)
-2.77

Also need CCCc1c(OCCCCc2nn[nH]n2)ccc(C(C)=O)c1O , thanks.
11.9

====

- ASSAYED_SYSTEM: Calcium and integrin-binding protein 1 (Homo sapiens) (UniProt Q99828)
- Sequence (Q99828 whole entry, looked up): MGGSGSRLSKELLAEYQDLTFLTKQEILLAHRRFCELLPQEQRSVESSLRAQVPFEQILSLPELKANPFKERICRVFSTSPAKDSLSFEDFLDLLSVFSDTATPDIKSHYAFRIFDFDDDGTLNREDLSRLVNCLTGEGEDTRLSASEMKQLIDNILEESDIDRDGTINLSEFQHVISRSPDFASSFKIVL
- ASSAY_METHOD_TEXT: Primary qHTS for Identification of Calcium Integrin Binding Protein 1 (CIB1) Competitor (AID 1508620);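 note: GST tagged CIB1 binding a fluorescein labelled alphaIIb integrin peptide tracer; top concentration of the series differs between compounds; % is set by controls: 0 for no effect and ±100 for the full control effect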
- CONDITION_SUMMARY: CIB1-GST / FITC-alphaIIb peptide fluorescence polarization; series mostly up to 114 µM
Inconclusive results are not listed. Calls of active or inactive are those of the source. The call rests on the fitted dose curve; in most records, active means well fitted inhibition curve with a large enough effect; inconclusive means small, poorly fitted or top-dose-only effect; inactive means flat fitted curve, though single readings scatter.
READOUT_NAME: activity change, negative = inhibition

Consider the reported activity change, negative = inhibition for these molecules:
- CS(=O)(=O)c1ccc([C@@H](O)[C@@H](CF)NC(=O)C(Cl)Cl)cc1: inactive
- COc1ccccc1O: inactive
- CCN(CC)C(C)CN1c2ccccc2Sc2ccccc21 (stereo not given): inactive
- C[C@@H]1CCN(C(=O)[C@H](CCCN=C(N)N)NS(=O)(=O)c2cccc3c2NC[C@H](C)C3)[C@@H](C(=O)O)C1: inactive
- O=c1cc(CO)occ1O: inactive
- CCCc1c(OCCCCc2nn[nH]n2)ccc(C(C)=O)c1O: inactive
- Cc1cc(CC(=O)O)n(C)c1C(=O)c1ccc(Cl)cc1: inactive
- CN1CCC[C@@H]1Cc1c[nH]c2ccc(CCS(=O)(=O)c3ccccc3)cc12: inactive

Could you now consider this next molecule?
Dear colleague, I am looking for the recorded activity change, negative = inhibition of the following molecule: COC(=O)C1=C(C)NC(C)=C(C(=O)OC)C1c1ccccc1[N+](=O)[O-]
inactive

====

- ASSAY_METHOD_TEXT: Nrf2 qHTS screen for inhibitors: Validation (AID 493153);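 note: A549 cells with ARE-driven firefly luciferase reporter reporting Nrf2 activity; % of control where 0% means no effect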
- CONDITION_SUMMARY: A549 ARE-Fluc reporter, 18-24 h; luciferase luminescence
Records with an inconclusive call do not appear. The source made the active and inactive calls. The call rests on the fitted dose curve; in most records, active means well fitted inhibition curve with a large enough effect in the main read-out, with a control signal flat (not every such curve was filed as active); inconclusive means small, poorly fitted or top-dose-only effect, or effect the other way, or a change in a side signal; inactive means no such curve, though single readings can be large or run the other way.
READOUT_NAME: outcome

• C[C@](N)(Cc1ccc(O)cc1)C(=O)O = inactive
• CNCCCC1c2ccccc2C=Cc2ccccc21 = inactive
• CC(=O)OCC(=O)[C@@]1(O)CC[C@H]2[C@@H]3CCC4=CC(=O)CC[C@]4(C)[C@H]3C(=O)C[C@@]21C = inactive

====

- ASSAYED_SYSTEM: Peroxisome proliferator-activated receptor alpha (Homo sapiens)
- ASSAY_METHOD_TEXT: qHTS assay for small molecule agonists of the peroxisome proliferator-activated receptor alpha (PPARalpha) signaling pathway (AID 651778); note: % of control where 0% means no effect
- CONDITION_SUMMARY: PathHunter PPARalpha complementation, chemiluminescence, 6 h; stronger effect = higher value
READOUT_NAME: max response (%)
Reply with just the number (in %).

Worked cases, answers included:
- O=S(=O)(O)NC1CCCCC1: -1.02
- CCCCC(CC)COC(=O)c1ccccc1O (stereo unspecified): 0.691
- CNC(=O)Oc1ccc2c(c1)[C@]1(C)CCN(C)[C@@H]1N2C: -3.11

// fetch Peroxisome proliferator-activated receptor alpha (Homo sapiens) max response for O=C1NS(=O)(=O)c2ccccc21
0.552

What do we get for Cc1cccc(Nc2cc(Cl)nc(SCC(=O)O)n2)c1C ?
-1.35

Also Oc1cccc(O)c1 ?
-10.6

====

- System: CP305
- ASSAY_METHOD_TEXT: qHTS profiling for inhibitors of Plasmodium falciparum proliferation (AID 504749);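 note: 0% = DMSO vehicle and full inhibition = artemisinin control; nearly all actives have a fitted effect of over 60% in size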
- CONDITION_SUMMARY: P. falciparum in erythrocytes, SYBR Green DNA, 72 h; series mostly up to 28.7 µM
Records with an inconclusive call do not appear. Activity calls are given as the source filed them. The call rests on the fitted dose curve; in most records, active means well fitted inhibition curve with a large enough effect; inconclusive means small, poorly fitted or top-dose-only effect; inactive means flat fitted curve, though single readings scatter.
Valid outcomes are listed here; reply with one: 1 (active), 0 (inactive)

Would you please look over these solved cases?
• C[C@H]1O[C@@H](n2cc(F)c(=O)[nH]c2=O)[C@H](O)[C@@H]1O = 0
• OCC(O)CN1CCN(c2ccccc2)CC1 (stereo not drawn) = 0
• [O-][n+]1cccc(CO)c1 = 0
• COc1ccc(S(=O)(=O)Nc2nnc(CC(C)C)s2)cc1 = 0
• Cc1ccc(C(C)C)cc2c(C)ccc1-2 = 0
• CC1=C(/C=C/C(C)=C/C=C/C(C)=C/C(=O)O)C(C)(C)CCC1 = 0
• O=C1O[C@H]([C@@H](O)CO)C(O)=C1O = 0
• NC1CCN(c2cccc(Cl)n2)CC1 = 0
• CCCn1cnc2c1c(=O)n(CCCCC(C)=O)c(=O)n2C = 0
• NCCNCCNCCN = 0

Now look at this one.
Recorded test call requested for CCOc1ccc2ccccc2c1C(=O)N[C@@H]1C(=O)N2[C@@H]1SC(C)(C)[C@@H]2C(=O)O
0

====

- System: Zika virus NS2B-NS3 protease (linked construct)
- ASSAY_METHOD_TEXT: Primary screen NINDS Rhodamine qHTS for Zika virus inhibitors (AID 1347160); note: nearly all actives have a fitted effect of over 55% in size
- CONDITION_SUMMARY: purified NS2B-NS3 protease, Rhodamine110 substrate fluorescence; series mostly up to 57.1 µM
Results filed as inconclusive are left out. Activity calls are given as the source filed them. Calls come from the whole dose curve; as a rule, active = well fitted inhibition curve with a large enough effect; inconclusive = small, poorly fitted or top-dose-only effect; inactive = no such curve, though single readings can be large or run the other way.
Lab note: assign the record to one of true = active, false = inactive

Previously resolved entries follow.
- CCOC(CN1CCN(CC(C)C(=O)c2ccccc2)CC1)c1ccccc1 (stereo not given): false
- CCN(CC)CCCC(C)Nc1c2ccc(Cl)cc2nc2ccc(OC)cc12 (stereo not given): false
- CN1CCC[C@@H]1Cc1c[nH]c2ccc(CCS(=O)(=O)c3ccccc3)cc12: false
- CCN(CC)C(=O)Nc1ccc(OCC(O)CNC(C)(C)C)c(C(C)=O)c1 (stereo not given): false

Dear colleague, could you share the recorded outcome for Cc1cc(C(C#N)c2ccc(Cl)cc2)c(Cl)cc1NC(=O)c1cc(I)cc(I)c1O (stereo not given) when you have a moment?
true
